These data points were gathered from patent US9156822B2.

- test.protocol: in vivo
- condition.summary: mouse, plasma
recorded.metric: concentration at 1 h (ng/mL)
One number for each entry, in ng/mL.

Prompt: Return concentration at 1 h (reported value) for this molecule: O=C1CCc2ccc(OCCCCN3CCCN(c4cccc(Cl)c4Cl)CC3)nc2N1
Completion: 24.6

----------
- test.protocol: in vivo
- condition.summary: mouse, brain
recorded.metric: concentration at 4 h (ng/g)
Give bare numbers, in ng/g.

Prompt: Return concentration at 4 h (reported value) for this compound: O=C1CCc2ccc(OCCCCN3CCCN(c4cccc(Cl)c4Cl)CC3)nc2N1
Completion: 16.9

----------
- test.protocol: in vivo
- condition.summary: mouse, plasma
recorded.metric: concentration at 8 h (ng/mL)
One number for each entry, in ng/mL.

Prompt: Return concentration at 8 h (reported value) for this molecule: O=C1CCc2ccc(OCCCCN3CCCN(c4cccc(Cl)c4Cl)CC3)nc2N1
Completion: 0

----------
- test.protocol: in vivo
- condition.summary: mouse, brain
recorded.metric: Cmax (ng/mL)
Answers are plain numbers, in ng/mL.

O=C1CCc2ccc(OCCCCN3CCCN(c4cccc(Cl)c4Cl)CC3)nc2N1 [Compound 3] | 49.8

Here is the next item to consider.
Prompt: Return Cmax (reported value) for this compound: O=C1CCc2ccc(OCCCCN3CCN(c4cccc(Cl)c4Cl)CC3)cc2N1 [Aripiprazole, aripiprazole, reference compound]
Completion: 166

----------
Can you tell me Ki for the items I'm about to list?
- measured.on: 5HT2C (Homo sapiens (Human))
- Sequence (P28335 33-458, species assumed): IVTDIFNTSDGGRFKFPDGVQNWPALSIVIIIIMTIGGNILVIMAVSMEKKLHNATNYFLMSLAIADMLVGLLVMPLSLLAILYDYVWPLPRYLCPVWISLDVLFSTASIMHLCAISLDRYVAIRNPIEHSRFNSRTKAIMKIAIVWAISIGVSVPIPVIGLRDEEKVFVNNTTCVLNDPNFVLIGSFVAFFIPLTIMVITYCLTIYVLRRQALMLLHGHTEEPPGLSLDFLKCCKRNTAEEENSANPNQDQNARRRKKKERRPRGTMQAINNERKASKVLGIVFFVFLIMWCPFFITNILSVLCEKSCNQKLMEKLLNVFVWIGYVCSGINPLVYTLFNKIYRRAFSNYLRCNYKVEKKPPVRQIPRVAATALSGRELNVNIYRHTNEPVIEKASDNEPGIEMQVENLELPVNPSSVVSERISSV
- condition.summary: read-out: 5HT2C/binding (Ki)
Give bare numbers, in nM.

O=C1CCc2ccc(OCCCCN3CCCN(c4cccc(Cl)c4Cl)CC3)nc2N1 | 99

Here is the next item to consider.
Prompt: Return Ki (reported value) for this compound: O=C1CCc2ccc(OCCCCN3CCCN(c4cccc(Cl)c4Cl)CC3)cc2N1
Completion: 115

----------
- measured.on: D2 receptors (Homo sapiens (Human), UniProt P14416)
- Sequence (P14416 whole entry): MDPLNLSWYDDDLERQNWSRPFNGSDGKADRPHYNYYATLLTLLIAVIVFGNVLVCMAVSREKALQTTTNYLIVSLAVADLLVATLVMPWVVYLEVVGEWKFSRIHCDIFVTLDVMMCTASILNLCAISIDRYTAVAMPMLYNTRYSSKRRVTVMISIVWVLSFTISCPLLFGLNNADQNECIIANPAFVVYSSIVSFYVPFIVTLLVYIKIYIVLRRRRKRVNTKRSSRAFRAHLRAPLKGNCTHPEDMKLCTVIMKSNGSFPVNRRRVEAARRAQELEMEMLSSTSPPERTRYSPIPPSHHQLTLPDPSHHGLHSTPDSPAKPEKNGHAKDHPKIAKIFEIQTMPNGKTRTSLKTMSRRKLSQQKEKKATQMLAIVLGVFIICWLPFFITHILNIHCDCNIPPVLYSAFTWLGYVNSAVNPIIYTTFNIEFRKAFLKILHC
- test.protocol: CHO-D2 radioligand binding assay ([3H]N-methylspiperone competition)
- condition.summary: CHO-D2 membranes, [3H]N-methylspiperone; read-out: D2 Binding Ki ± SEM
recorded.metric: Ki (nM)
Numbers only, in nM.

Sample answers from the record:
Clc1cccc(N2CCN(CCCCOc3ccc4scnc4c3)CC2)c1Cl | 17
Clc1cccc(C2CCN(CCCOc3ccc4scnc4c3)CC2)c1Cl | 75

Please look at the items below and tell me Ki for each one, in order.
1. O=C1NCCc2ccc(OCCCN3CCCN(c4cccc(Cl)c4Cl)CC3)cc21
2. CCOc1ccccc1N1CCCN(CCCCOc2ccc3c(c2)NC(=O)CC3)CC1

Completion:
[5.7, 4.1]

Please look at the items below and tell me Ki for each one, in order.
1. O=c1ccc2ccc(OCCCN3CCCN(c4cccc(Cl)c4Cl)CC3)cc2[nH]1
2. CC(C)Oc1ccccc1N1CCCN(CCCCOc2ccc3c(n2)NC(=O)CC3)CC1
3. O=C1NCCc2ccc(OCCCCN3CCN(c4cccc(Cl)c4Cl)CC3)cc21
4. O=C1NCCc2ccc(OCCCN3CCN(c4cccc(Cl)c4Cl)CC3)cc21

Completion:
1: 3.4; 2: 1.29; 3: 18; 4: 18

Prompt: Return Ki (reported value) for this compound: O=C1NCCc2ccc(OCCCCN3CCC(c4cccc(Cl)c4Cl)CC3)cc21
Completion: 20
